Test system: PC-3 cell line
Experiment: MTT cytotoxicity assay
Conditions: 120 h treatment
I'd be grateful if you could share measured IC50 PC-3 for these entries.
Numbers only, in µg/mL.

molecule	IC50 PC-3 [µg/mL]
CCCCCCCCCCCCCCCC(=O)[O][Pt]1([O]C(=O)CCCCCCCCCCCCCCC)[O]C(=O)C(=O)[O]1.NC1CCCCC1N [OXADP, oxaliplatin dipalmitate]	2.20
CCCCCCCCCCCCCCCC(=O)[O][Pt]12([O]C(C)=O)([NH]C3CCCCC3[NH]1)[O]C(=O)C(=O)[O]2 (stereo not shown) [OXA-PAL-ACT, oxaliplatin palmitate acetate]	0.25
CCCCCCCCCCCCCCCC(=O)[O][Pt]1([O]C(=O)CCC(=O)O)[O]C(=O)C(=O)[O]1.NC1CCCCC1N	0.35

What value of IC50 PC-3 has been recorded for this entry: O=C1[O][Pt]2([NH][C@@H]3CCCC[C@H]3[NH]2)[O]C1=O [Oxaliplatin, reference compound]
3.63

Reference source: patent US10239903B2
